Collected MIC values appear next to each entry.
system: Klebsiella pneumoniae; test: Antibacterial activity against multidrug resistant Klebsiella pneumoniae ATCC43816 assessed as inhibition of bacterial growth incubated for 24 hrs in MHI medium by twofold serial dilution method; conditions: ATCC43816, 24 h

Sample records with MIC:
{"Mol": "NCc1ccc(-c2ccc(N3C[C@H](CO)OC3=O)cc2F)cc1", "Test target": "Klebsiella pneumoniae", "MIC": "> 200 µM"}
{"Mol": "O=C1O[C@@H](CO)CN1c1ccc(-c2cccc(CO)c2)c(F)c1", "Test target": "Klebsiella pneumoniae", "MIC": "> 200 µM"}
{"Mol": "CC(=O)NC[C@H]1CN(c2ccc(N3CCOCC3)c(F)c2)C(=O)O1", "Test target": "Klebsiella pneumoniae", "MIC": "> 200 µM"}
{"Mol": "O=C1O[C@@H](CO)CN1c1ccc(-c2cccnc2)c(F)c1", "Test target": "Klebsiella pneumoniae", "MIC": "> 200 µM"}

Provide measured MIC value, entry: C[n+]1ccc(-c2ccc(-c3ccc(N4C[C@H](CO)OC4=O)cc3F)cc2)cc1
> 200 µM
